All figures here come from PubChem BioAssay AID1996.

Stated Conditions: buffer; pH 7.4; 200.0 µM
Reported Endpoint: log10 of solubility kinetic (log10 of the value in µg/mL)
Hello, just confirming the data are log10 of solubility kinetic with units of µg/mL.

INSERT INTO results (compound, endpoint_value) VALUES
  ('CC(Nc1nc(N2CCOCC2)nc2ccccc12)c1ccccc1 (configuration not stated)', 0.83),
  ('Cc1cc(C)c(C(=O)CSc2nc(C)cc(=O)[nH]2)c(C)c1', 1.15),
  ('CC(C)(C)NC(=O)NC12CC3CC(CC(C3)C1)C2', 0.32),
  ('COc1ccccc1C1CC(=O)NC(C)=C1C(=O)OC(C)C (configuration not stated)', 1.45),
  ('Cc1cnc(C(=O)Nc2cc(F)ccc2C)cn1', 1.19);

Inquiry: Dear colleague, I am looking for the recorded log10 of solubility kinetic of the following compound: Cc1cc(C(=O)NC2CCCN(Cc3ccc(Cl)cc3)C2)no1 (configuration not stated)
Reply text: 1.60

Inquiry: Fill in the blank: the reported log10 of solubility kinetic of COc1cccc2cc(-c3nc4ccccc4o3)c(=O)oc12 is ____.
Reply text: 0.23

Inquiry: For the compound CCc1noc(C)c1C(=O)Nc1nc(-c2ccc(OC)cc2)cs1 , what log10 of solubility kinetic is on record?
Reply text: 0.36
